Where do these numbers come from? They come from PubChem BioAssay (NCATS).

Experiment: qHTS of pediatric cancer cell lines to identify multiple opportunities for drug repurposing: Primary screen for NB-EBc1 cells (AID 1347095);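 note: plate controls were DMSO neutral control for no effect and bortezomib for full effect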
Conditions: NB-EBc1 neuroblastoma viability, CellTiter-Glo luminescence, 48 h; series mostly up to 46 µM
Results filed as inconclusive are left out. Calls of active or inactive are those of the source. Calls come from the whole dose curve; as a rule, active = well fitted cell-killing curve with a large enough effect; inconclusive = small, poorly fitted or top-dose-only effect; inactive = no such curve, though single readings can be large or run the other way.
Thanks in advance; please answer with one of these: active, inactive

Query: // outcome(item) with item = CC(=O)OC[C@@H]1O[C@@H](n2ccc(=O)[nH]c2=O)[C@H](OC(C)=O)[C@H]1OC(C)=O
Reply: inactive

====

Assay: Quantitative High-Throughput drug screen in 47 multiple myeloma cell lines against the NCATS MIPE library collection: Karpas25_ECACC cell viability assay (AID 1918968; note: nearly all actives have a fitted effect of over 35% in size)
Conditions: Karpas25 myeloma viability, CellTiter-Glo ATP, 48 h; series mostly up to 45.8 µM
Inconclusive results are not listed. The source made the active and inactive calls. The call rests on the fitted dose curve; in most records, active means well fitted cell-killing curve with a large enough effect; inconclusive means small, poorly fitted or top-dose-only effect, or effect the other way; inactive means no such curve, though single readings can be large or run the other way.
Thanks in advance; please answer with one of these: active, inactive

Field: example entries. Status: answers known.
Query: // outcome(item) with item = COc1cc(OC)c(NC(=O)Nc2cc(C)on2)cc1Cl
Reply: active

Query: // outcome(item) with item = Cn1cc(CNCC2CCN(c3ncc(C(=O)NO)cn3)CC2)c2ccccc21
Reply: active

Query: // outcome(item) with item = COc1cc(C)c(C=CC(C)=CC=CC(C)=CC(=O)O)c(C)c1C
Reply: inactive

Query: // outcome(item) with item = c1coc(CNc2ncnc3nc[nH]c23)c1
Reply: inactive

Query: // outcome(item) with item = CC(C)N(CC[C@H](c1ccccc1)c1cc(CO)ccc1O)C(C)C
Reply: inactive

Further cases:
Query: // outcome(item) with item = COc1cc(OC)c(C=CS(=O)(=O)Cc2ccc(OC)c(NCC(=O)O)c2)c(OC)c1
Reply: active

Query: // outcome(item) with item = CC[C@H](CC[C@@H](C)[C@H]1CC[C@H]2[C@@H]3CC=C4C[C@@H](O)CC[C@]4(C)[C@@H]3CC[C@]12C)C(C)C
Reply: inactive

Query: // outcome(item) with item = CN(N=O)C(=O)N[C@H]1C(O)OC(CO)[C@@H](O)[C@H]1O (stereo not given in full)
Reply: inactive

Query: // outcome(item) with item = CCN(C(=O)c1c(O)c2c(Cl)cccc2n(C)c1=O)c1ccccc1
Reply: inactive

Query: // outcome(item) with item = Oc1ccc(-c2ccc(-c3cc(Nc4cccc(CNC5CC5)c4)n[nH]3)cc2)c(O)c1
Reply: active

====

Test: qHTS Screen of the MIPE 4.0 Collection Against Ewings Sarcoma (EW8) (AID 1259255); note: nearly all actives have a fitted effect of over 35% in size;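 for viability: 100% = DMSO-treated cells and 0% = medium-only wells without cells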
Conditions: EW8 Ewing sarcoma viability, CellTiter-Glo, 48 h; series mostly up to 45.8 µM
Inconclusive results are not listed. The source made the active and inactive calls. Calls follow the shape of the dose curve; as a rule, active = well fitted inhibition curve with a large enough effect; inconclusive = small, poorly fitted or top-dose-only effect; inactive = no such curve, though single readings can be large or run the other way.
Thanks in advance; please answer with one of these: 1.0 = active, 0.0 = inactive

Query: // outcome(item) with item = N#Cc1c(C2CCNCC2)cc(-c2c(O)cccc2OCC2CC2)nc1N
Reply: 1.0

Query: // outcome(item) with item = Nc1ccc(C(=O)Nc2cccc(-c3nc(N4CCOCC4)c4oc5ncccc5c4n3)c2)cn1
Reply: 1.0

Query: // outcome(item) with item = CC(C=CC1=C(C)CCCC1(C)C)=CC=CC(C)=CC(=O)Nc1ccc(O)cc1
Reply: 1.0

Now look at this one.
Query: // outcome(item) with item = NC[C@H]1O[C@H](O[C@H]2[C@@H](O)[C@@H](O[C@H]3O[C@H](CO)[C@@H](O)[C@H](N)[C@@H]3O)[C@H](N)C[C@@H]2N)[C@H](N)C[C@H]1O
Reply: 0.0
